experiment: Pharmacokinetic evaluation in nude mice; assay type: in vivo; details: female, mouse, plasma, po; BALB/C nude mice, intragastric administration, 50 mg/kg; read-out: Clearance CLz/F

compound: Cc1nc(N[C@H](C)c2cccc(C(F)F)c2F)c2cc([C@]3(O)CC[C@@H](O)CC3)c(=O)[nH]c2n1 [Example 18-p1]
measurement.unit: mL/min/kg
CL/F: 160

====

target: interaction between the KRAS protein subtype G12V and the SOS1 protein (Homo sapiens, UniProt Q07889); construct: GST-TEV-SOS1(564-1049) (Viva Biotech, SOS1-191010); purchased SOS1: Viva Biotech; KRAS: Shanghai Panchao Biotechnology Co., Ltd. SOS1-191010; test: Inhibition of the interaction between KRAS G12V and SOS1 protein (AlphaLISA/AlphaScreen); assay type: binding; details: KRAS G12V + GST-TEV-SOS1(564-1049) + GDP
The label Condition met is reserved for IC50 strictly under 60 nM; Condition not met covers values equal to or above it.

compound: CC(=O)N1CC[C@H](Oc2cc3c(N[C@H](C)c4cccc(C(F)F)c4F)nc(C)nc3[nH]c2=O)C1 [Example 24]
group.label: Condition not met
--
compound: CC(=O)N1CC(Oc2cc3c(N[C@H](C)c4cccc(C(F)F)c4F)nc(C)nc3[nH]c2=O)C1 (racemic) [Example 26]
group.label: Condition not met
--
compound: Cc1nc(N[C@H](C)c2cccc(C(F)F)c2F)c2cc(O[C@H]3CCOC3)c(=O)[nH]c2n1 [Example 10]
group.label: Condition not met
--
compound: Cc1nc(N[C@H](C)c2cccc(C(F)F)c2F)c2cc(OC3CCS(=O)(=O)CC3)c(=O)[nH]c2n1 [Example 23]
group.label: Condition not met
--
compound: Cc1nc(N[C@H](C)c2cccc3c2OCC3(F)F)c2cc([C@]3(O)CC[C@@H](O)CC3)c(=O)[nH]c2n1 (racemic) [Example 25-p1]
group.label: Condition met
--
compound: Cc1nc(N[C@H](C)c2cccc(C(F)F)c2F)c2cc(OC3CN(C(=O)CF)C3)c(=O)[nH]c2n1 [Example 27]
group.label: Condition met

====

Biological target: interaction between the KRAS protein subtype G12D and the SOS1 protein (Homo sapiens)
Construct: GST-TEV-SOS1(564-1049) (Viva Biotech, SOS1-191010); purchased SOS1: Viva Biotech; KRAS: Shanghai Panchao Biotechnology Co., Ltd. SOS1-191010
Sequence (Q07889 564-1049): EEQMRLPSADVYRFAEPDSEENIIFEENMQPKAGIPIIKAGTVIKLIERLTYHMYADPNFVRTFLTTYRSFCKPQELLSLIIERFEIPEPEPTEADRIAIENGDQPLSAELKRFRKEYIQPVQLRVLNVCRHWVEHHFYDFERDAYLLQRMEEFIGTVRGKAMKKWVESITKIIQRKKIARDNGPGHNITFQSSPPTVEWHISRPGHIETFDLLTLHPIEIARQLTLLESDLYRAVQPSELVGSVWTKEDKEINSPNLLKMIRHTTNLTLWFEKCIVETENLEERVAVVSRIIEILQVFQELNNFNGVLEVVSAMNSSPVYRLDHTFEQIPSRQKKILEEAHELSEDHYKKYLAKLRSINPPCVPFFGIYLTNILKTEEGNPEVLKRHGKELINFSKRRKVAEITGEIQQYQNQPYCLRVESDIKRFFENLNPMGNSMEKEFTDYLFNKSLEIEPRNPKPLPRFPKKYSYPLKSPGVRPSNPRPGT
Experiment: Inhibition of the interaction between KRAS G12D and SOS1 protein (AlphaLISA/AlphaScreen)
Type: binding
Settings: KRAS G12D + GST-TEV-SOS1(564-1049) + GDP
reported.property: IC50 (nM)

compound: Cc1nc(N[C@H](C)c2cccc(C(F)F)c2F)c2cc([C@]3(O)CC[C@H](O)CC3)c(=O)n(C)c2n1 [Example 28-p2]
reported.property: IC50
data.value: 175
//
compound: Cc1nc(N[C@H](C)c2cccc(C(F)F)c2F)c2cc(C3CCOCC3)c(=O)[nH]c2n1
reported.property: IC50
data.value: 30
//
compound: Cc1nc(N[C@H](C)c2cccc(C(F)F)c2F)c2cc(C3(O)CCN(C(=O)CF)CC3)c(=O)[nH]c2n1 (racemic)
reported.property: IC50
data.value: 14
//
compound: Cc1nc(N[C@H](C)c2cccc(C(F)F)c2F)c2cc(OC3CCS(=O)(=O)CC3)c(=O)[nH]c2n1
reported.property: IC50
data.value: 10
